Catalogue of GI50 values
Tested on: DU-145
METHOD DESCRIPTION: Cytotoxicity against human DU145 cells after 48 hrs by SRB assay
Format: functional, cell-based
CONDITIONS: Homo sapiens, DU-145, 48 h; read-out: GI50
Give the value in nM but do not write nM after it.

Solved cases (2 shown):
C/C=C1\NC(=O)[C@H](Cc2ccccc2)NC(=O)[C@@H](C(C)C)NC(=O)[C@@H]([C@H](C)CC)NC(=O)[C@H](NC(=O)[C@H](NC(=O)[C@H](CCCN)NC(=O)[C@H]2CCCN2C(=O)[C@H](NC(=O)[C@@H](NC(=O)[C@@H](NC(=O)[C@H](NC(=O)c2ccc(C(F)(F)F)cc2)C(C)C)[C@@H](C)O)C(C)C)C(C)C)[C@H](C)CC)[C@H](C)OC(=O)[C@H](C(C)C)NC1=O: 310
C/C=C1\NC(=O)[C@H](Cc2ccccc2)NC(=O)[C@@H](C(C)C)NC(=O)[C@@H]([C@H](C)CC)NC(=O)[C@H](NC(=O)[C@H](NC(=O)[C@H](CCCNC(=O)CCC2CCCCC2)NC(=O)[C@H]2CCCN2C(=O)[C@H](NC(=O)[C@@H](NC(=O)[C@@H](NC(=O)[C@H](NC(=O)CCCC(C)C)C(C)C)[C@@H](C)O)C(C)C)C(C)C)[C@H](C)CC)[C@H](C)OC(=O)[C@H](C(C)C)NC1=O: 76.6

Req: Fill in the blank: the reported GI50 of `C/C=C1\NC(=O)[C@H](Cc2ccccc2)NC(=O)[C@@H](C(C)C)NC(=O)[C@@H]([C@H](C)CC)NC(=O)[C@H](NC(=O)[C@H](NC(=O)[C@H](CCCN)NC(=O)[C@H]2CCCN2C(=O)[C@H](NC(=O)[C@H](CCC2CCCCC2)NC(=O)[C@@H](NC(=O)[C@H](NC(=O)CCCC(C)C)C(C)C)[C@@H](C)O)C(C)C)[C@H](C)CC)[C@H](C)OC(=O)[C@H](C(C)C)NC1=O` is ____.
Resp: 350
